Target: syn-pre-pro-Δ89-CB1R (Homo sapiens, UniProt P21554)
Construct: expressed in transfected cells; host or cells: Saccharomyces cerevisiae BY4741-derived ZsGreen reporter strain (Gpa1-Gαi3 chimera; also sterol-modified strains ST01–ST15)
Sequence (P21554 90-472 limits assumed, stated change not applied): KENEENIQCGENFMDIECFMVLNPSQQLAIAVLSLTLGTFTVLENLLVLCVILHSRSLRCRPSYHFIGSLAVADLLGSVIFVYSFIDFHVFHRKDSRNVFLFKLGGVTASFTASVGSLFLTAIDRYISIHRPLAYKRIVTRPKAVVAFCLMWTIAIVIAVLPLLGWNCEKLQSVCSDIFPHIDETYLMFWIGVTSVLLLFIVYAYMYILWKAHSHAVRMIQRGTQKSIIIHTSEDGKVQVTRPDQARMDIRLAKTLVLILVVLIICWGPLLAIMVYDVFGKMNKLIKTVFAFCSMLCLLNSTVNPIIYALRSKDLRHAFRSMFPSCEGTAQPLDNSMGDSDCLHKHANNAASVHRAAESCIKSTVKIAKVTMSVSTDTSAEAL
Experiment: syn-pre-pro-Δ89-CB1R dose response in sterol-modified yeast strains ST01–ST15
Assay type: cell-based
Settings: Strain ST12; read-out: EC50
measured_endpoint: pEC50
Kindly note that pEC50 refers to -log10 of the concentration in mol/L and answer with the value alone.

Query: Given CCCCC/C=C\C/C=C\C/C=C\C/C=C\CCCC(=O)NCCCl [ACEA, Arachidonyl-2′-chloroethylamide] , state its recorded pEC50.
Reply: 6.85

Entry source: paper PMC11173002
